- assayNotes: Plasma concentration in C57BL/6 mouse oral glucose tolerance test at 3 mg/kg, po via gavage measured at 3 hrs
endpointName: concentration at 3 h (nM)
Numbers only, in nM.

Qu. Value lookup for concentration at 3 h; key = CO[C@H]1C[C@H](Oc2cc(F)c(F)c(-c3ccc4c(c3)CC[C@H](CCC(=O)O)O4)n2)C1
Ans. 750

###

- subjectOfTest: Free fatty acid receptor 4 (Homo sapiens, UniProt Q5NUL3)
- Sequence (Q5NUL3 whole entry): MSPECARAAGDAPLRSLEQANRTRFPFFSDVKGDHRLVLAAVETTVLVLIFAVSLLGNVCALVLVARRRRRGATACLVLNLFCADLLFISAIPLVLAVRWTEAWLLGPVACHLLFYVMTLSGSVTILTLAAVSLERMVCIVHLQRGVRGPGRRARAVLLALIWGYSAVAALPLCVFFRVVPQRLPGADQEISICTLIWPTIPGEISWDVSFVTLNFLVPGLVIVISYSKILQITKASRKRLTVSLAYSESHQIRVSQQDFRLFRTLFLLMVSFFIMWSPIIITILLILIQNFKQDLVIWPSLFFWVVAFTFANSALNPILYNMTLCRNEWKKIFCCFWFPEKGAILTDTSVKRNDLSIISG
- assayNotes: Agonist activity at human GPR120 short isoform expressed in CHOK1 cells assessed as beta-arrestin recruitment after 90 mins by luminescence assay
- Type: cell-based, CHO-K1
Rule: EC50 below 8 nM gives Met, anything at or above gives Not met.

Before answering, review these 5 worked examples.
[[record]]
mol = "Cc1cnc(Oc2cc(Cl)c(F)c(-c3ccc4c(c3)CC[C@H](CCC(=O)O)O4)c2)s1"
assignedlabel = "Met"

[[record]]
mol = "CO[C@H]1C[C@H](Oc2cc(F)c(F)c(-c3ccc4c(c3)CC[C@H](CCC(=O)O)O4)n2)C1"
assignedlabel = "Not met"

[[record]]
mol = "O=C(O)CC[C@H]1CCc2cc(-c3cc(OC4CCC4)cc(Cl)c3F)ccc2O1"
assignedlabel = "Not met"

[[record]]
mol = "O=C(O)CC[C@H]1CCc2cc(-c3cc(OC(F)(F)F)ccc3F)ccc2O1"
assignedlabel = "Not met"

[[record]]
mol = "COc1cc(O[C@H]2C[C@H](OC)C2)nc(-c2ccc3c(c2)CC[C@H](CCC(=O)O)O3)c1F"
assignedlabel = "Met"


Qu. Could you please tell me whether EC50 recorded for O=C(O)CC[C@@H]1CCc2cc(-c3cc(OC(F)(F)F)ccc3F)ccc2O1 is less than 8 nM?
Ans. Not met

Qu. Could you please tell me whether EC50 recorded for CO[C@H]1C[C@H](Oc2cc(F)c(F)c(-c3ccc4c(c3)CC[C@H]([C@@H]3C[C@H]3C(=O)O)O4)c2)C1 is less than 8 nM?
Ans. Not met

###

- assayNotes: Mean residence time in rhesus monkey plasma at 0.5 mg/kg, iv or 1 mg/kg, po by LC/MS/MS analysis
- Type: ADME, organism-based, Macaca mulatta
endpointName: MRT (h)
One number for each entry, in h.

Qu. Value lookup for MRT; key = CO[C@H]1C[C@H](Oc2cc(F)c(F)c(-c3ccc4c(c3)CC[C@H](CCC(=O)O)O4)n2)C1
Ans. 13.5

###

- assayNotes: Clearance in rhesus monkey plasma at 0.5 mg/kg, iv or 1 mg/kg, po by LC/MS/MS analysis
- Assay type: ADME, organism-based, Macaca mulatta
endpointName: clearance (mL/min/kg)
Numbers only, in mL/min/kg.

Qu. Value lookup for clearance; key = CO[C@H]1C[C@H](Oc2cc(F)c(F)c(-c3ccc4c(c3)CC[C@H](CCC(=O)O)O4)n2)C1
Ans. 0.33
